FYI, the data here is from patent US20230312528A1.

Listed here: items and their measured log10(IC50).
# experimental_system: human NaV1.8 (Homo sapiens (Human))
# Sequence (Q9Y5Y9 whole entry): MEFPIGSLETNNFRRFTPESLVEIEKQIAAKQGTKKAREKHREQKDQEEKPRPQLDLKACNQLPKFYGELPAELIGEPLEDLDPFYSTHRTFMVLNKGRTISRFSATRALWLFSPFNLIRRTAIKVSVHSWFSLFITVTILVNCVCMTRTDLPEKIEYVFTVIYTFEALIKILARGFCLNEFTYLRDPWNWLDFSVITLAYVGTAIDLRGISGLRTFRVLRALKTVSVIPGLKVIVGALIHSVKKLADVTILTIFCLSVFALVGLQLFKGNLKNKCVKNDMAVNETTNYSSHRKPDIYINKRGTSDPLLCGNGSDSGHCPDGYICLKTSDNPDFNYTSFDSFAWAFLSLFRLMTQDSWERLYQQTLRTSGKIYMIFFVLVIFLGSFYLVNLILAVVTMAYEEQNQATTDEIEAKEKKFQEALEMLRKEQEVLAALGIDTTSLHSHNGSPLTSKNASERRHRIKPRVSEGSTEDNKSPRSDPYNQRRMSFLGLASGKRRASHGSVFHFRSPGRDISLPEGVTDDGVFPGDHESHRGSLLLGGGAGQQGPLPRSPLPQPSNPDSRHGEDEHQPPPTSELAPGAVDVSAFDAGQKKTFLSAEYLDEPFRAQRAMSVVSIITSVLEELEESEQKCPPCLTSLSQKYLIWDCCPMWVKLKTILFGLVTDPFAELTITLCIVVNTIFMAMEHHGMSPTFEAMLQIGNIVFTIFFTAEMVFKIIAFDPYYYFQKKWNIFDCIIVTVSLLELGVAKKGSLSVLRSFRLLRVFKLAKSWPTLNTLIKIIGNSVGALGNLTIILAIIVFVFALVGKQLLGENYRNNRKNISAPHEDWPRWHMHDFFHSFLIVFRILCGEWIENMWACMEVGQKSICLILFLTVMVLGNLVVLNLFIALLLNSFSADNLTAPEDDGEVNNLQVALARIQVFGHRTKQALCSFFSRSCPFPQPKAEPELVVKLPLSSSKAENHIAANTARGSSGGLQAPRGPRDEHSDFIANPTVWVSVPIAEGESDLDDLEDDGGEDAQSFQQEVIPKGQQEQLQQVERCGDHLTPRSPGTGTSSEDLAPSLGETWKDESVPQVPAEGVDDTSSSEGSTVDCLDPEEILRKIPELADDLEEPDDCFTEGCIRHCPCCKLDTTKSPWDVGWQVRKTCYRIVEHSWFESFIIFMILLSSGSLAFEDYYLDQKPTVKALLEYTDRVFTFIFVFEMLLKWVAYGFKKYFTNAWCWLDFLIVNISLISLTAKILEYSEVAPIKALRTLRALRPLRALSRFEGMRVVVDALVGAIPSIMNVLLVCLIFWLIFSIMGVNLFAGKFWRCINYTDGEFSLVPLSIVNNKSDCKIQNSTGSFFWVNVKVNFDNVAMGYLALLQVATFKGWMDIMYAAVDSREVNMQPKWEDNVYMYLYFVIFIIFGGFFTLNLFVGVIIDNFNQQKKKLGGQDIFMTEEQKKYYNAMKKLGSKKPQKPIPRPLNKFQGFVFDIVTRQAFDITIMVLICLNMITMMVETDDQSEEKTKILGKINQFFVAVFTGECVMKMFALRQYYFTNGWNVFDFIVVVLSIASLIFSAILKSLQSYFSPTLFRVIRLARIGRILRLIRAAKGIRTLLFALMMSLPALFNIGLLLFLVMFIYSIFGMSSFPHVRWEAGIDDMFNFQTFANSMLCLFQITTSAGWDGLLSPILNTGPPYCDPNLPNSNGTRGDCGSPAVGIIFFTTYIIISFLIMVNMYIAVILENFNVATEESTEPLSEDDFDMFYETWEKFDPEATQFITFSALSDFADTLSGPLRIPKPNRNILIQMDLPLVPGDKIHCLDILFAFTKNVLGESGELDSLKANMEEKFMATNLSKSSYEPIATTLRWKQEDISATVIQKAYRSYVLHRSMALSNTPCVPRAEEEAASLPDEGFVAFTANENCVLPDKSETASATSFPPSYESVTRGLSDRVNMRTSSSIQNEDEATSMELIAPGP
# protocol_details: Nav1.8 Qube automated patch-clamp assay
# Type: cell-based
# study_conditions: human NaV1.8 stably expressed in HEK 293 cells; automated 384-well patch-clamp; resting or inactivated state not specified
assay_metric: log10(IC50) (log10 of the value in nM)

compound | assay_metric | observed
O=C1NC[C@@H](C(=O)NC(c2ccc(F)c(C(F)F)n2)c2ccc(F)c(Cl)c2F)N1 (single isomer, unassigned) [Example 63A] | log10(IC50) | 0.62
CC1(C)CC(C(NC(=O)[C@@H]2CNC(=O)N2)c2ccc(Cl)cc2)CCN1CC(F)(F)F (single isomer, unassigned) [Example 91D] | log10(IC50) | 2.66
O=C1NC[C@@H](C(=O)NC(c2ccc(F)c(Cl)c2F)C2COC(C(F)(F)F)C2)N1 (single isomer, unassigned) [Example 79A] | log10(IC50) | 1.59
CN1CCC(C(NC(=O)[C@@H]2CNC(=O)N2)c2ccc(F)c(Cl)c2F)CC1C(F)(F)F (single isomer, unassigned) [Example 78D] | log10(IC50) | 3.67
O=C1NC[C@@H](C(=O)NC(c2ccc(F)c(Cl)c2F)C2CCN(C3(C(F)(F)F)CC3)CC2)N1 (single isomer, unassigned) [Example 5A] | log10(IC50) | 0.20
